Molecular target: T1, human CDH6 with EC4 removed, on HEK293T cells (HEK293T-hCDH6-EC4 deletion) (human, UniProt P55285 54-790)
T1 construct: Signal peptide not removed here
T1 sequence: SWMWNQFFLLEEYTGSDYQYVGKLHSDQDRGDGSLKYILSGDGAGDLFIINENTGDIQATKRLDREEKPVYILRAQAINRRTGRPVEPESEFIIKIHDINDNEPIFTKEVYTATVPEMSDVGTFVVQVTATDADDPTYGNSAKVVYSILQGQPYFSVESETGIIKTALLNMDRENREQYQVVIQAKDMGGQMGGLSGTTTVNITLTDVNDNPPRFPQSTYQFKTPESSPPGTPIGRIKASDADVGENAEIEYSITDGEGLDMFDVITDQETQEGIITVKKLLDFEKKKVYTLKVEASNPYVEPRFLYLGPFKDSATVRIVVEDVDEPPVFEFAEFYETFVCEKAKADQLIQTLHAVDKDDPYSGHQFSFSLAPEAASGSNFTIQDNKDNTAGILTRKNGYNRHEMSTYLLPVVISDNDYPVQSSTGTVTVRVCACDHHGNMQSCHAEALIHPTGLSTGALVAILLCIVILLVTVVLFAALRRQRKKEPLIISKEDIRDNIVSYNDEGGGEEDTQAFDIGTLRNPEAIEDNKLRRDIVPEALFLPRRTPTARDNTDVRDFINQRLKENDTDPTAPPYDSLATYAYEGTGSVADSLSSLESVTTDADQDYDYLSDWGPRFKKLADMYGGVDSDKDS
Experiment: FACS, HEK293T-hCDH6-EC4 deletion cells
outcome.measure: Max MFI (MFI)
Numbers only here, please. The scale is MFI.

The examples below pair each entry with its known result.
CHI-CDH6-7 (antibody, human IgG1, kappa, V domains shown, also called CH1-CDH6-7; chimeric antibody of murine CDH6-7) VH: EVKLVESGGGLVKPGGSLKVSCAASGFTFSDHGMAWVRQAPGKGPEWVAFISNLAYSIYYADTVTGRFTISRENAKNTLYLEMSSLRSEDTAMYYCARVYVKWYFDVWGAGTTVTVSS VL: DIQMTQSPASLSASVGETVTITCRASENIDSYLAWYQQKQGKSPQLLVFAATLLADGVPSRFSGSGSGTQYSLKINSLQSEDVARYYCQHYYSTPLTFGAGTKLELKR	17400
CHI-CDH6-14 (antibody, human IgG1, kappa, V domains shown, also called CHI-hCDH6-14; CH1-CDH6-14) VH: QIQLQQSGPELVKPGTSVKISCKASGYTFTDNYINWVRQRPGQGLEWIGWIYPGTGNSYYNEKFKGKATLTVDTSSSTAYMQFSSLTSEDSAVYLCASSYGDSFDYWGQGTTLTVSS VL: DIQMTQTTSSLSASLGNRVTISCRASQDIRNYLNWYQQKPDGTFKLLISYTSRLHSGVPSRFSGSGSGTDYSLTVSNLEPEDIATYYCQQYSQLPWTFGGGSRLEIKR	26600

stdin: For the binder DS-H01L02 (antibody, human IgG1, kappa, V domains shown, Positive control, variable regions from WO2018212136A1; also called positive control anti-human CDH6 antibody) VH: EVQLVQSGAEVKKPGASVKVSCKASGYTFTRNFMHWVRQAPGQGLEWMGWIYPGDGETEYAQKFQGRVTITADTSTSTAYMELSSLRSEDTAVYYCARGVYGGFAGGYFDFWGQGTLVTVSS VL: DIQMTQSPSSLSASVGDRVTITCKASQNIYKNLAWYQQKPGKAPKLLIYDANTLQTGVPSRFSGSGSGSDFTLTISSLQPEDFATYFCQQYYSGWAFGQGTKVEIKR , report Max MFI.
stdout: 11800

The measurements presented in this section are drawn from patent US20260234242A1.
